Source of measurements: patent US8461128B2

Molecular target: YbtE (Yersinia pestis, UniProt Q56950)
Sequence (Q56950 1-525): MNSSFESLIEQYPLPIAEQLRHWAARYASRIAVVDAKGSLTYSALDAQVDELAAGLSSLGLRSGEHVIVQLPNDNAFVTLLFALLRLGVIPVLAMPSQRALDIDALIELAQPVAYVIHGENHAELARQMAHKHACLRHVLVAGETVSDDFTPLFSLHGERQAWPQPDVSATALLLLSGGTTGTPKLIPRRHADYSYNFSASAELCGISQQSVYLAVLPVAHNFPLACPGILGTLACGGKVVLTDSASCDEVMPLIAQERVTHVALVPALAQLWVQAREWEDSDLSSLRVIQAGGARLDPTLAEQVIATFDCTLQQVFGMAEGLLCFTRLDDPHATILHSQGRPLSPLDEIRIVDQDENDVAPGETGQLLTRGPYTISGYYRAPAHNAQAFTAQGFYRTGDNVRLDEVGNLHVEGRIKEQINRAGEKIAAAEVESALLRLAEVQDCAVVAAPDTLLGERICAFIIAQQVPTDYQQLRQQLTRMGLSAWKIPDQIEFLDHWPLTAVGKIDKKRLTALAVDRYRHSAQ
Assay: biochemical
reported property: pKi
Scale: negative log10 of molar concentration, which is what pKi denotes.

Q) // query pKi value for entry Nc1ncnc2c1ncn2[C@@H]1O[C@H](COS(=O)(=O)NC(=O)c2ccccc2O)[C@@H](O)[C@H]1O [salicyl-AMS, 5′-O—[N-(salicyl)sulfamoyl]-adenosine]
A) 9.46

###

Tested on: Y. pestis KIM6-2082.1+
Assay: microbe, parasite or virus in culture
Assay type: cell-based, Yersinia pestis
Conditions: Yersinia pestis
Reported IC50 by item:

Q) // query IC50 value for entry CC(=O)O[C@@H]1[C@H](OC(C)=O)[C@@H](COS(=O)(=O)NC(=O)c2ccccc2O)O[C@H]1n1ccc2ccccc21
A) > 200 µM

Now turn to the next compound.
Q) // query IC50 value for entry O=C(NS(=O)(=O)OC[C@H]1O[C@@H](n2ccc3ccccc32)[C@H](O)[C@@H]1O)c1ccccc1O
A) > 500 µM

###

Tested on: M. tuberculosis H37Rv
Experiment: microbe, parasite or virus in culture
Type: cell-based, Mycobacterium tuberculosis
Details: Mycobacterium tuberculosis, H37RV
reported property: MIC90

// solved cases for MIC90 follow
Q) // query MIC90 value for entry Nc1ncnc2c1ncn2[C@@H]1O[C@H](COS(=O)(=O)NC(=O)c2ccc(O)cc2)[C@@H](O)[C@H]1O [4-hydroxybenzoyl-AMS]
A) > 200 µM

Q) // query MIC90 value for entry Nc1ncnc2c1ncn2[C@@H]1O[C@H](COS(N)(=O)=O)[C@@H](O)[C@H]1O [AMS, 5′-O-Sulfamoyladenosine, reference compound]
A) ~100 µM

Q) // query MIC90 value for entry Nc1ncnc2c1ncn2[C@H]1CC[C@@H](COS(=O)(=O)NC(=O)c2ccccc2O)O1 [salicyl-ddAMS]
A) ~200 µM

Q) // query MIC90 value for entry COc1ccccc1C(=O)NS(=O)(=O)OC[C@H]1O[C@@H](n2cnc3c(N)ncnc32)[C@H](O)[C@@H]1O [2-methoxybenzoyl-AMS]
A) > 200 µM

Now turn to the next molecule.
Q) // query MIC90 value for entry CC(=O)O[C@@H]1[C@H](OC(C)=O)[C@@H](COS(=O)(=O)NC(=O)c2ccccc2O)O[C@H]1n1ccc2ccccc21 [2′,3′-diacetylsalicyl-IRMS]
A) > 200 µM

###

Target: YbtE (Yersinia pestis)
Test: biochemical
Conditions: read-out: Ki (non-competitive with respect to salicylate)
reported property: Ki (nM)
Record the value in nM, omitting the unit from your answer.

Q) // query Ki value for entry Nc1ncnc2c1ncn2[C@@H]1O[C@H](COS(=O)(=O)NC(=O)c2ccccc2O)[C@@H](O)[C@H]1O [salicyl-AMS, 5′-O—[N-(salicyl)sulfamoyl]-adenosine]
A) 1.08

###

Tested on: Y. pestis KIM6-2082.1+
Experiment: microbe, parasite or virus in culture
Format: cell-based, Yersinia pestis
reported property: IC50
The reply should consist of the numeric value with the unit placed after it.

Q) Give recorded IC50 with Y. pestis KIM6-2082.1+ for the following compound: Nc1ncnc2c1ncn2[C@@H]1O[C@H](COS(=O)(=O)NC(=O)c2ccccc2)[C@@H](O)[C@H]1O
A) 500 µM

###

Target: YbtE (Yersinia pestis, UniProt Q56950)
Assay: biochemical
Type: biochemical
Conditions: IC50
Reported IC50 by item:

Q) // query IC50 value for entry NS(=O)(=O)OC[C@H]1O[C@@H](n2ccc3ccccc32)[C@H](O)[C@@H]1O
A) > 20000 nM

###

Target: YbtE (Yersinia pestis)
Assay: biochemical
Type: biochemical
Conditions: read-out: IC50
reported property: IC50 (nM)
Record the value in nM, omitting the unit from your answer.

Q) // query IC50 value for entry Nc1ncnc2c1ncn2[C@@H]1O[C@H](COS(=O)(=O)NC(=O)c2ccccc2O)[C@@H](O)[C@H]1O [salicyl-AMS, 5′-O—[N-(salicyl)sulfamoyl]-adenosine]
A) 47.9

###

Target: YbtE (Yersinia pestis, UniProt Q56950)
pKd: −log10 of the molar value.
reported property: pKd

Q) Give recorded pKd with YbtE (Yersinia pestis, UniProt Q56950) for the following compound: Nc1ncnc2c1ncn2[C@@H]1O[C@H](COS(=O)(=O)NC(=O)c2ccccc2O)[C@@H](O)[C@H]1O [salicyl-AMS, 5′-O—[N-(salicyl)sulfamoyl]-adenosine]
A) ≥ 9.00

###

Test system: M. tuberculosis H37Rv
Test: microbe, parasite or virus in culture
Assay type: cell-based, Mycobacterium tuberculosis
Reported pIC50 by item:
Scale: negative log10 of molar concentration, which is what pIC50 denotes.

Q) // query pIC50 value for entry Nc1ccc(C(=O)O)c(O)c1 [p-aminosalicylic acid, reference compound]
A) 7.10

Now turn to the next compound.
Q) // query pIC50 value for entry Nc1ncnc2c1ncn2[C@@H]1O[C@H](COS(=O)(=O)NC(=O)c2ccc(O)cc2)[C@@H](O)[C@H]1O [4-hydroxybenzoyl-AMS]
A) 3.96

###

Molecular target: YbtE (Yersinia pestis, UniProt Q56950)
Experiment: biochemical
Type: biochemical
Conditions: IC50
Reported IC50 by item:
Record the value in nM, omitting the unit from your answer.

Q) Give recorded IC50 with YbtE (Yersinia pestis, UniProt Q56950) for the following compound: CC(=O)Oc1ccccc1C(=O)NS(=O)(=O)OC[C@H]1O[C@@H](n2ccc3ccccc32)[C@H](OC(C)=O)[C@@H]1OC(C)=O [2′,2″,3′-triacetylsalicyl-IRMS]
A) 1800

Q) Give recorded IC50 with YbtE (Yersinia pestis, UniProt Q56950) for the following compound: Cc1cccc(O)c1C(=O)NS(=O)(=O)OC[C@H]1O[C@@H](n2cnc3c(N)ncnc32)[C@H](O)[C@@H]1O [6-methylsalicyl-AMS]
A) 23

Q) Give recorded IC50 with YbtE (Yersinia pestis, UniProt Q56950) for the following compound: CC(OS(=O)(=O)NC(=O)c1ccccc1O)[C@H]1O[C@@H](n2cnc3c(N)ncnc32)[C@H](O)[C@@H]1O (mixture of isomers) [(RS)-5′-methyl-salicyl-AMS]
A) 9

Q) Give recorded IC50 with YbtE (Yersinia pestis, UniProt Q56950) for the following compound: CC(=O)O[C@@H]1[C@H](OC(C)=O)[C@@H](COS(=O)(=O)NC(=O)c2ccccc2O)O[C@H]1n1ccc2ccccc21 [2′,3′-diacetylsalicyl-IRMS]
A) 3900

Now turn to the next compound.
Q) Give recorded IC50 with YbtE (Yersinia pestis, UniProt Q56950) for the following compound: O=C(NS(=O)(=O)OC[C@H]1O[C@@H](n2ccc3ccccc32)[C@H](O)[C@@H]1O)c1ccccc1O [salicyl-IRMS]
A) 21

###

Reported IC50 by item:
Target: UniProt:Q56950
Experiment: biochemical
Type: biochemical
Details: IC50

// solved cases for IC50 follow
Q) // query IC50 value for entry CC(=O)NS(=O)(=O)OC[C@H]1O[C@@H](n2cnc3c(N)ncnc32)[C@H](O)[C@@H]1O
A) > 400 µM

Q) // query IC50 value for entry Nc1ncnc2c1nc1n2[C@@H]2O[C@H](COS(=O)(=O)NC(=O)CCCCC1)[C@@H](O)[C@H]2O
A) > 40 µM

Now turn to the next molecule.
Q) // query IC50 value for entry Nc1ncnc2c1nc1n2[C@@H]2O[C@H](COS(=O)(=O)NC(=O)CCCC#C1)[C@@H](O)[C@H]2O
A) > 40 µM
